testProtocol: Tissue distribution study in rabbits after oral Panax notoginseng extract with or without Borneol
Assay type: in vivo, New Zealand rabbits
conditionSummary: New Zealand, rabbit, heart, po, 1.0 h, oral Panax notoginseng with Borneol, read-out: Concentration in heart
measuredEndpoint: concentration at 1 h (ng/g)
Kindly answer with a numeric value in ng/g, unit omitted.

Enquiry: Report concentration at 1 h, nothing else, for this molecule: CC(C)=CCC[C@](C)(O[C@@H]1O[C@H](CO)[C@@H](O)[C@H](O)[C@H]1O)[C@H]1CC[C@]2(C)[C@@H]1[C@H](O)C[C@@H]1[C@@]3(C)CC[C@H](O)C(C)(C)[C@@H]3[C@@H](O[C@@H]3O[C@H](CO)[C@@H](O)[C@H](O)[C@H]3O)C[C@]12C [GRg1, ginsenoside Rg1]
Return: 27000

Enquiry: Report concentration at 1 h, nothing else, for this molecule: CC(C)=CCC[C@](C)(O[C@@H]1O[C@H](CO)[C@@H](O)[C@H](O)[C@H]1O)[C@H]1CC[C@]2(C)[C@@H]1[C@H](O)C[C@@H]1[C@@]3(C)CC[C@H](O)C(C)(C)[C@@H]3[C@@H](O[C@@H]3O[C@H](CO)[C@@H](O)[C@H](O)[C@H]3O[C@@H]3O[C@@H](C)[C@H](O)[C@@H](O)[C@H]3O)C[C@]12C [GRe, ginsenoside Re]
Return: 3280
